test-target: human APJ receptor (Homo sapiens)
Construct: expressed in transfected cells; host or cells: HEK293
Sequence (P35414 whole entry): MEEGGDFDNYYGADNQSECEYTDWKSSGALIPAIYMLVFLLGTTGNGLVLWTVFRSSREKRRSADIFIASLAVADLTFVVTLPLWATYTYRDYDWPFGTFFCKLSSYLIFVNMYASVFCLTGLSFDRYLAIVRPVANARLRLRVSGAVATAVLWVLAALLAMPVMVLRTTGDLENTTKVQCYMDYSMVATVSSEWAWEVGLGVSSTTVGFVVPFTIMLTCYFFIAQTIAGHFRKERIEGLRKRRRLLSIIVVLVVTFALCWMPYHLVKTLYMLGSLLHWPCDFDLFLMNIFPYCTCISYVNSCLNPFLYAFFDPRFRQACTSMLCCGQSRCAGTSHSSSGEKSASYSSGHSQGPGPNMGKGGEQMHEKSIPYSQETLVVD
assay-notes: Intracellular cAMP accumulation assay (APJ hcAMP, HTRF)
Format: cell-based
measurement-conditions: HEK293 cells stably expressing human APJ receptor; inhibition of forskolin-mediated cAMP production; Table 1; read-out: hAPJ cAMP EC50 Potency range
pEC50: −log10 of the molar value.
The following compounds are listed with their measured pEC50 values.

CCCCc1nc(O)c(C(=O)N2CC[C@H](c3ccccc3)C2)c(O)c1N(CCC)c1ccccc1
7.00 to 8.00

Now for another entry.
q: Provide value of pEC50 for this record tested with human APJ receptor (Homo sapiens): CCCCc1nc(O)c(S(=O)(=O)c2ccc(-c3ccccc3C(=O)NC)cc2)c(O)c1N(C)c1ccccc1F
a: 8.00 to 11.00

# credit: patent US10669258B2
